# Test system: HCT-15 colon
# assay.summary: NCI-60 one-dose screen, 48 h
# condition.details: 10 µM
This is part of a sample that, as a whole, favours compounds with a hit. Of some 83,000 tested, about 20% had one in any assay. Active and inactive are the calls of the source. How the source made its calls: active means growth percent below 10; inactive means the rest.
Labels: active, inactive

compound	class
CCCCSc1nc(Nc2ccc(/C(C)=N/NC(N)=S)cc2)c(C#N)c(-c2ccc(OC)cc2)n1	inactive
COc1ccc(C(=O)/C=C/c2ccc(Cl)c(C(F)(F)F)c2)cc1S(N)(=O)=O	active
CC1=C2C(=C[C@@](C)(CO)[C@@H]2O)/C(=N\N)[C@](C)(O)C12CC2	active
CCN1CCN(c2ccc(NC(=O)Nc3ccc4c(c3F)CCN4c3ccnc(C(=O)NC)c3)cc2C(F)(F)F)CC1	active
COc1ccc2[nH]cc(/C=N/Nc3cccc(Cl)n3)c2c1	inactive
CC(=O)OC[C@@]1(C)C2CC[C@]3(C)C(CC=C4C5CC(C)(C)CC[C@]5(C(=O)Nc5ccccc5)CC[C@]43C)[C@@]2(C)C[C@@H](OC(C)=O)[C@@H]1OC(C)=O (stereo partly drawn)	inactive
Cc1noc2c(Cc3ccccc3)nn(CC(=O)N/N=C/c3ccc(F)cc3)c(=O)c12	inactive
Cc1cc(C)cc(Oc2cccc(-c3c(C)nnn3C3CCN(CCN(C)C)CC3)n2)c1	active
